B1: PPFIA4 (parent)
chain: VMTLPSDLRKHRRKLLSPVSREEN

Variants of: B1
methodNotes: protein stability index of a GFP-peptide fusion (GPS, HEK-293T) (PSI 1-6); higher = more stable;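 further: lentivirally expressed fusions sorted by FACS into six bins by GFP to DsRed ratio, PSI derived from sequencing read proportions per bin multiplied by bin number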
conditions: c terminus: a fixed tail appended
readoutType: protein stability index
Numbers only.

- K10S: 3.88
- V19K: 3.67
- D7G: 3.62
- L15P: 4.11
- K14C: 2.98

For every record below, what is its protein stability index?
1. E23A
2. R12K
3. N24D
4. K14D
5. P5T
6. L8A
7. E22D

Result:
3.04
3.81
4.33
4.28
3.67
3.43
3.5

For every record below, what is its protein stability index?
1. K14Y
2. V1D
3. D7A
4. R9N
5. L15T
6. L15F

Result:
[3.1, 4.35, 2.24, 4.18, 3.9, 4.27]

For every record below, what is its protein stability index?
1. R12C
2. S6P
3. R13G
4. L4A
5. L15E
6. S17T
7. P5L

Result:
1: 3.34; 2: 3.97; 3: 3.91; 4: 4.27; 5: 4.22; 6: 4.23; 7: 2.48
